biological target: HLA-A*3002 (human); experiment: competition, purified HLA

- binder: "IYGPGPGLIF (modifications not checked)"
  IC50: "6840 nM"
- binder: "FTDLRIVY (modifications not checked)"
  IC50: "8060 nM"
- binder: "TQDGPGPGY (modifications not checked)"
  IC50: "541 nM"
- binder: "RQDILDLWVY (modifications not checked)"
  IC50: "95 nM"
- binder: "FTDLTIVY (modifications not checked)"
  IC50: "39000 nM"
- binder: "RVLPPNWKY (modifications not checked)"
  IC50: "3 nM"
- binder: "YTGPGPGVY (modifications not checked)"
  IC50: "6.4 nM"
- binder: "IMVLSFLF (modifications not checked)"
  IC50: "30000 nM"
- binder: "RWGLLLALL (modifications not checked)"
  IC50: "300 nM"
- binder: "AYSSWMYSY (modifications not checked)"
  IC50: "4.9 nM"
- binder: "EVDGPGPGY (modifications not checked)"
  IC50: "5770 nM"
- binder: "RISGVDRYY (modifications not checked)"
  IC50: "3 nM"
